Listed below: +Δ % (The maximum increase rate of blood pressure) values for each entry.
Tested on: Male SD rats
Experiment: Blood pressure change after tail vein injection (mean arterial pressure)
Details: dosage 2× ED50, injection within 15 seconds, 60 min recording, rats under isoflurane
Protocol: Male SD rats weighing 250-300 g were randomly divided into groups, with 10 rats in each group. General anesthesia was maintained by inhaling isoflurane. By intubating via femoral artery, blood pressure was monitored using the BL-420N biological signal collection and analysis system. minutes after blood pressure stabilization, the baseline mean arterial pressure (MAP0) was measured. […] After injection of each drug, the change in blood pressure was continuously recorded for 60 min. […]
Where a name gives a salt, the structure may show the parent alone.
assayReadout: +Δ % (The maximum increase rate of blood pressure)

[[record]]
molecule = "COC(=O)COC(=O)OCn1cnc([C@@H](C)c2cccc(C)c2C)c1 [Compound 23-HCl]"
subjectoftest = "Male SD rats"
measuredvalue = "29 ± 7%"

[[record]]
molecule = "Cc1cccc([C@H](C)c2cn(COC(=O)OC3CC3)cn2)c1C [Compound 22-HCl]"
subjectoftest = "Male SD rats"
measuredvalue = "34 ± 7%"

